testTarget: T1, TMEV 2A (Theiler's murine encephalitis virus …, UniProt P08545 923-1055)
T1 sequence: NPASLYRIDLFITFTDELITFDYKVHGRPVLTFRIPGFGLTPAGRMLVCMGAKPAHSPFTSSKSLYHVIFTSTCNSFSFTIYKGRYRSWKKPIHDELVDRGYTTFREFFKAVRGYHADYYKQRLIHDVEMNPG
protocolNotes: EMSA; range given jointly for +1 and -1 bp; EMSA: 10 mM Tris-HCl pH 7.4, ~140 mM NaCl, 2 mM Mg acetate, 1 mM DTT, 5% glycerol, 50 nM RNA, 37 C; MST: 20 mM Tris-HCl pH 7.4, 400 mM NaCl, 1 mM MgCl2, 1 mM DTT, 0.05% Tween-20, 0.1 mg/ml tRNA, 22 C; smFRET: 10 mM Tris-HCl pH 7.4, 150 mM NaCl, 1 mM MgCl2, 1 mM DTT, 0.1 mg/ml BSA, ambient
assaySetup: protein: recombinant; tags: His6-MBP, TEV-cleaved/removed; label: 5' Cy5 or AzDye647; 8 bp S2
pKd: −log10 of the molar value.
measuredProperty: pKd

I'd like to know its pKd. The binder in question is CAAGGUGGGGUGCUUACUAAAUCCCAAGCACCCC (structured_RNA) [+1 bp stem 2] ~6.35
